testedTarget: T1, Fc-tagged cyno CD3E/D heterodimer (Macaca fascicularis, UniProt Q95LI5;Q95LI8)
T1 construct: CD3 epsilon, cynomolgus monkey; CD3 delta, cynomolgus monkey; source: Expi293, transiently co-expressed, purified (MabSelect Sure LX, Superdex 200)
T1 sequence (Q95LI5 22-198, chain 1 of 2): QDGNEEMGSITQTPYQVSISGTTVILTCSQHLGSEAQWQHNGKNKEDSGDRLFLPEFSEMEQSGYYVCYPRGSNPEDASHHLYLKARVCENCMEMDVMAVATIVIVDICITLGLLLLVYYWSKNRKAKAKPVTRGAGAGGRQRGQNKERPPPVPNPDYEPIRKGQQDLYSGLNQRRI
T1 sequence (Q95LI8 22-171, chain 2 of 2): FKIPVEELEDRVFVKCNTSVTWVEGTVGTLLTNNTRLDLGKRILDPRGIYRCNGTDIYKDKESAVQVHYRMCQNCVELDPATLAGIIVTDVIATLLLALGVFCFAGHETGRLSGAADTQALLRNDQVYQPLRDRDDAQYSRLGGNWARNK
assayRemarks: SPR; Fc-tagged CD3E/D variants captured on a C1 chip by amine-coupled anti-human Fc or anti-murine Fc pAb; concentration series of Fab; HBS pH 7.4, 0.05% Tween-20, 1 g/L BSA, 37 °C; 1:1 Langmuir model with mass transport
details: both partners purified
Items are presented alongside their recorded Kd.
Record the value in nM, omitting the unit from your answer.

As a guide, the following entries are already answered.
hCD3.1 Fab (Fab, V domains shown, VH of hCD3.1; CH1 of the Fab; VL of hCD3.1; CL of the Fab; Anti-human CD3 arm of a clinical T-cell engager; cloned in pTT5 with an N-terminal osteonectin signal peptide; source: Expi293, transient, purified (Ni Sepharose excel, Superdex 200)) VH: EVQLVESGGGLVQPGGSLRLSCAASGFTFSDYYMTWVRQAPGKGLEWVAFIRNRARGYTSDHNPSVKGRFTISRDNAKNSLYLQMNSLRAEDTAVYYCARDRPSYYVLDYWGQGTTVTVSS VL: DIVMTQSPDSLAVSLGERATINCKSSQSLFNVRSRKNYLAWYQQKPGQPPKLLISWASTRESGVPDRFSGSGSGTDFTLTISSLQAEDVAVYYCKQSYDLFTFGSGTKLEIK :: 6.5
hCD3.4 Fab (Fab, V domains shown, VH of hCD3.4; CH1 of the Fab; VL of hCD3.4; CL of the Fab; Anti-human CD3 arm of a clinical T-cell engager; cloned in pTT5 with an N-terminal osteonectin signal peptide; source: Expi293, transient, purified (Ni Sepharose excel, Superdex 200)) VH: QVQLVQSGAEVKKPGASVKVSCKASGFNIKDYYMHWVRQAPGQRLEWMGWIDLENGNTIYDPKFQGRVTITRDTSASTAYMELSSLRSEDTAVYYCARDGYGRYFYDVWGQGTLVTVSS VL: DIVMTQSPDSLAVSLGERATINCKSSQSLLNSRTGKNYLAWYQQKPGQPPKLLIYWASTRESGVPDRFSGSGSGTDFTLTISSLQAEDVAVYYCKQSYSRRTFGGGTKVEIK :: 2.7
hCD3.2 Fab (Fab, V domains shown, VH of hCD3.2; CH1 of the Fab; VL of hCD3.2; CL of the Fab; Anti-human CD3 arm of a clinical T-cell engager; cloned in pTT5 with an N-terminal osteonectin signal peptide; source: Expi293, transient, purified (Ni Sepharose excel, Superdex 200)) VH: EVQLVESGGGLVQPGGSLRLSCAASGFTFNTYAMNWVRQAPGKGLEWVARIRSKYNNYATYYAASVKGRFTISRDDSKNSLYLQMNSLKTEDTAVYYCARHGNFGNSYVSWFAYWGQGTLVTVSS VL: QTVVTQEPSLTVSPGGTVTLTCRSSTGAVTTSNYANWVQQKPGQAPRGLIGGTNKRAPGTPARFSGSLLGGKAALTLSGVQPEDEAEYYCALWYSNLWVFGGGTKLTVL :: 3.8

Now for the binder whose Kd we want.
**Q:** Assign Kd to the following record: SP34 Fab (Fab, V domains shown, VH of SP34; CH1 of the Fab; VL of SP34; CL of the Fab; Cyno cross-reactive anti-human CD3 clone; cloned in pTT5 with an N-terminal osteonectin signal peptide; source: Expi293, transient, purified (Ni Sepharose excel, Superdex 200)) VH: EVQLVESGGGLVQPKGSLKLSCAASGFTFNTYAMNWVRQAPGKGLEWVARIRSKYNNYATYYADSVKDRFTISRDDSQSILYLQMNNLKTEDTAMYYCVRHGNFGNSYVSWFAYWGQGTLVTVSA VL: QAVVTQESALTTSPGETVTLTCRSSTGAVTTSNYANWVQEKPDHLFTGLIGGTNKRAPGVPARFSGSLIGDKAALTITGAQTEDEAIYCALWYSNLWVFGGGTKLTVL
**A:** 7.5
